# System: HCC-2998 (colon cancer)
# Measurement notes: NCI-60 SRB cytotoxicity screen
# Assay type: cell-based
# Test context: Homo sapiens; HCC-2998, single dose 10 μM; read-out: growth inhibition (GI%)
Property name: inhibition at 10 µM (%)
Reply with just the number (in %).

Ask: Query (compound): CCc1cccc2cc(-c3cc(-c4cc(OC)c(OC)c(OC)c4)[nH]c(=S)c3C#N)c(Cl)nc12 ; field requested: inhibition at 10 µM
Result: 33

Ask: For the compound shown here, CCc1cccc2cc(-c3cc(-c4cc(OC)c(OC)c(OC)c4)[nH]c(=O)c3C#N)c(Cl)nc12 , give the reported inhibition at 10 µM.
Result: 47

----------
Field: inhibition at 10 µM. Provide a value for each of the compounds that follow.
# Tested on: HT29 (colon cancer)
# Measurement notes: NCI-60 SRB cytotoxicity screen
# Assay type: cell-based
# Test context: Homo sapiens, HT-29; HT29, single dose 10 μM; read-out: growth inhibition (GI%)

Ask: Entry CCc1cccc2cc(-c3cc(-c4ccc(F)cc4)[nH]c(=S)c3C#N)c(Cl)nc12 has what inhibition at 10 µM?
Result: < 10%

Ask: Item CCc1cccc2cc(-c3cc(-c4cc(OC)c(OC)c(OC)c4)[nH]c(=O)c3C#N)c(Cl)nc12 has what recorded inhibition at 10 µM?
Result: < 10%

Ask: Please give the measured inhibition at 10 µM for this compound: CCc1cccc2cc(C3C=C(c4cc(OC)c(OC)c(OC)c4)NC(=S)N3)c(Cl)nc12 (stereo not drawn)
Result: 36.4%

Ask: Consider the compound shown here: CCc1cccc2cc(C=CC(=O)c3ccc(OC)cc3)c(Cl)nc12 What is its recorded inhibition at 10 µM?
Result: < 10%

Ask: Give its inhibition at 10 µM value. Item: CCc1cccc2cc(C=CC(=O)c3cc(OC)c(OC)c(OC)c3)c(Cl)nc12
Result: 77.4%

Ask: I have this compound here, CCc1cccc2cc(C=CC(=O)c3ccc(Br)cc3)c(Cl)nc12 , and I need its recorded inhibition at 10 µM.
Result: < 10%

Ask: Form field: reported inhibition at 10 µM of CCc1cccc2cc(C3C=C(c4ccc(OC)c(OC)c4)NC(=S)N3)c(Cl)nc12 (stereo not drawn)
Result: < 10%

Ask: Entry CCc1cccc2cc(-c3cc(-c4ccc(OC)cc4)[nH]c(=S)c3C#N)c(Cl)nc12 has what inhibition at 10 µM?
Result: < 10%

Ask: Consider the compound CCc1cccc2cc(-c3cc(-c4ccc(OC)c(OC)c4)[nH]c(=O)c3C#N)c(Cl)nc12 and give its measured inhibition at 10 µM.
Result: < 10%

Ask: Can you share its inhibition at 10 µM? I mean this compound: CCc1cccc2cc(-c3cc(-c4ccc(Br)cc4)[nH]c(=S)c3C#N)c(Cl)nc12
Result: < 10%

Ask: For the compound CCc1cccc2cc(-c3cc(-c4ccc(Br)cc4)[nH]c(=O)c3C#N)c(Cl)nc12 , what inhibition at 10 µM is on record?
Result: < 10%

Ask: Value lookup for inhibition at 10 µM; key = CCc1cccc2cc(C=CC(=O)c3ccc(OC)c(OC)c3)c(Cl)nc12
Result: 26.9%

Ask: Request the reported inhibition at 10 µM associated with CCc1cccc2cc(-c3cc(-c4ccc(OC)cc4)[nH]c(=O)c3C#N)c(Cl)nc12
Result: < 10%

Ask: Bench note: what inhibition at 10 µM did CCc1cccc2cc(C3C=C(c4ccc(Br)cc4)NC(=S)N3)c(Cl)nc12 (stereo not drawn) show?
Result: 11.9%

Ask: Which value of inhibition at 10 µM has been reported for CCc1cccc2cc(C3C=C(c4ccc(OC)cc4)NC(=S)N3)c(Cl)nc12 (stereo not drawn) in the records?
Result: < 10%

Ask: What does the data say about its inhibition at 10 µM? Entry: CCc1cccc2cc(C=CC(=O)c3ccc(F)cc3)c(Cl)nc12
Result: < 10%

Ask: Would you mind telling me what inhibition at 10 µM value was observed for CCc1cccc2cc(-c3cc(-c4cc(OC)c(OC)c(OC)c4)[nH]c(=S)c3C#N)c(Cl)nc12 ?
Result: 20.4%

Ask: Field request: inhibition at 10 µM | item: CCc1cccc2cc(C3C=C(c4ccc(F)cc4)NC(=S)N3)c(Cl)nc12 (stereo not drawn)
Result: 28.3%

----------
# System: KM12 (colon cancer)
# Measurement notes: NCI-60 SRB cytotoxicity screen
# Assay type: cell-based
# Test context: Homo sapiens; KM12, single dose 10 μM; read-out: growth inhibition (GI%)
I'd appreciate it if you could supply inhibition at 10 µM values for the items below.

Ask: I'd like to know its inhibition at 10 µM. The compound in question is CCc1cccc2cc(-c3cc(-c4ccc(OC)cc4)[nH]c(=S)c3C#N)c(Cl)nc12
Result: < 10%

Ask: So what's the measured inhibition at 10 µM for this one? CCc1cccc2cc(C=CC(=O)c3ccc(OC)cc3)c(Cl)nc12
Result: < 10%

Ask: Recorded inhibition at 10 µM for CCc1cccc2cc(-c3cc(-c4ccc(OC)cc4)[nH]c(=O)c3C#N)c(Cl)nc12 , please?
Result: < 10%

Ask: What value of measured inhibition at 10 µM is listed for CCc1cccc2cc(C=CC(=O)c3cc(OC)c(OC)c(OC)c3)c(Cl)nc12 ?
Result: 80.7%

Ask: Entry CCc1cccc2cc(-c3cc(-c4ccc(F)cc4)[nH]c(=O)c3C#N)c(Cl)nc12 has what inhibition at 10 µM?
Result: < 10%

Ask: Recorded inhibition at 10 µM for CCc1cccc2cc(C=CC(=O)c3ccc(Br)cc3)c(Cl)nc12 , please?
Result: < 10%

Ask: What value of inhibition at 10 µM has been reported for the following compound? CCc1cccc2cc(C3C=C(c4ccc(OC)cc4)NC(=S)N3)c(Cl)nc12 (centres unmarked)
Result: < 10%

Ask: // lookup inhibition at 10 µM for CCc1cccc2cc(-c3cc(-c4ccc(Br)cc4)[nH]c(=O)c3C#N)c(Cl)nc12
Result: < 10%

----------
# Test system: SF-268 (CNS cancer)
# Measurement notes: NCI-60 SRB cytotoxicity screen
# Assay type: cell-based
# Test context: Homo sapiens; SF-268, single dose 10 μM; read-out: growth inhibition (GI%)
# label = 1 if inhibition at 10 µM >= 20% else 0

Ask: Is it the case that CCc1cccc2cc(C3C=C(c4ccc(F)cc4)NC(=S)N3)c(Cl)nc12 (centres unmarked) has inhibition at 10 µM reaching or exceeding 20%?
Result: 0

Ask: Can CCc1cccc2cc(C3C=C(c4cc(OC)c(OC)c(OC)c4)NC(=S)N3)c(Cl)nc12 (centres unmarked) be said to have inhibition at 10 µM at or above 20%?
Result: 1

Ask: Is the recorded value of inhibition at 10 µM equal to or greater than 20% for this molecule? CCc1cccc2cc(C=CC(=O)c3cc(OC)c(OC)c(OC)c3)c(Cl)nc12
Result: 1

Ask: Answer whether inhibition at 10 µM of CCc1cccc2cc(C3C=C(c4ccc(Br)cc4)NC(=S)N3)c(Cl)nc12 (centres unmarked) is greater than or equal to 20%.
Result: 0

Ask: Does inhibition at 10 µM meet or surpass 20% for CCc1cccc2cc(C3C=C(c4ccc(OC)cc4)NC(=S)N3)c(Cl)nc12 (centres unmarked) ?
Result: 0

Ask: Check the entry CCc1cccc2cc(C3C=C(c4ccc(OC)c(OC)c4)NC(=S)N3)c(Cl)nc12 (centres unmarked) : does inhibition at 10 µM equal or exceed 20%?
Result: 0

Ask: Does the molecule CCc1cccc2cc(C=CC(=O)c3ccc(OC)cc3)c(Cl)nc12 have recorded inhibition at 10 µM that is 20% or more?
Result: 0

Ask: I'd appreciate it if you could say whether CCc1cccc2cc(-c3cc(-c4ccc(OC)c(OC)c4)[nH]c(=O)c3C#N)c(Cl)nc12 has inhibition at 10 µM at least equal to 20%.
Result: 0

----------
# System: HL-60(TB) (leukemia)
# Measurement notes: NCI-60 SRB cytotoxicity screen
# Assay type: cell-based
# Test context: Homo sapiens, single dose 10 μM, read-out: growth inhibition (GI%)
Property name: inhibition at 10 µM

Ask: Param readout= inhibition at 10 µM; system= HL-60(TB) (leukemia); entry= CCc1cccc2cc(C3C=C(c4ccc(OC)cc4)NC(=S)N3)c(Cl)nc12 (centres unmarked) ; returns value.
Result: < 10%

Ask: Entry CCc1cccc2cc(C3C=C(c4ccc(Br)cc4)NC(=S)N3)c(Cl)nc12 (centres unmarked) , system HL-60(TB) (leukemia): what inhibition at 10 µM was measured?
Result: < 10%

Ask: Request: inhibition at 10 µM, test system HL-60(TB) (leukemia), entry CCc1cccc2cc(-c3cc(-c4ccc(OC)c(OC)c4)[nH]c(=S)c3C#N)c(Cl)nc12
Result: < 10%

Ask: Could you share what inhibition at 10 µM was measured for CCc1cccc2cc(C3C=C(c4ccc(OC)c(OC)c4)NC(=S)N3)c(Cl)nc12 (centres unmarked) , tested on HL-60(TB) (leukemia)?
Result: 10.7%

Ask: State its inhibition at 10 µM on HL-60(TB) (leukemia): CCc1cccc2cc(-c3cc(-c4ccc(OC)cc4)[nH]c(=S)c3C#N)c(Cl)nc12
Result: 14.9%

Ask: Param readout= inhibition at 10 µM; system= HL-60(TB) (leukemia); entry= CCc1cccc2cc(-c3cc(-c4ccc(OC)c(OC)c4)[nH]c(=O)c3C#N)c(Cl)nc12 ; returns value.
Result: < 10%

Ask: Param readout = inhibition at 10 µM; param system = HL-60(TB) (leukemia); param query = CCc1cccc2cc(C=CC(=O)c3ccc(OC)cc3)c(Cl)nc12 ; response: value
Result: 45.8%

Ask: Query for HL-60(TB) (leukemia): what inhibition at 10 µM does the record show for CCc1cccc2cc(C3C=C(c4ccc(F)cc4)NC(=S)N3)c(Cl)nc12 (centres unmarked) ?
Result: < 10%
